MCR3 EC50 (nM); cAMP production, LANCE cAMP assay, CHO-MCR3 cells, cell pool B values for the binders below.
- experimental.system: MCR3 (human, UniProt P41968 1-323)
- Sequence (P41968 whole entry): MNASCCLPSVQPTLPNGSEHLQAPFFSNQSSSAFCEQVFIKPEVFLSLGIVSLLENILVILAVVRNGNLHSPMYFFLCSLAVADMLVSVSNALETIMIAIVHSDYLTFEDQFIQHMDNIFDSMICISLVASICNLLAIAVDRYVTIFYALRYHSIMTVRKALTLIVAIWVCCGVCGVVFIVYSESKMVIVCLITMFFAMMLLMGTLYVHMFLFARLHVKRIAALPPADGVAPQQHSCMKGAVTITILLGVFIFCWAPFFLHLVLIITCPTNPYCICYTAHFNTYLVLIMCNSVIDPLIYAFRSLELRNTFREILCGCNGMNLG
- assay.notes: cell-based or functional assay
Square brackets hold non-standard residues; d marks the D form. Ends that are not written are not given here. Nle = CCCC[C@H](N)C(=O)O; βAla = NCCC(=O)O
Express it in nM; write the number only.

Worked cases, MCR3 EC50 (nM); cAMP production, LANCE cAMP assay, CHO-MCR3 cells, cell pool B given:
binder="[Nle]EH[dF]RW[βAla]G[βAla][Nle]EH[dF]RW [NDP-ACTH4-9-βAla-G-βAla-NDP-ACTH4-9]" unit_of_measurement=nM endpoint_result=25
binder="NDP-α-MSH-linker-MMP site-linker-ACTH1-24 (peptide) peptide: Ac-SYS[Nle]EH[dF]RWGKPVGGGGSPLGLWAGGGGSSYSMEHFRWGKPVGKKRRPVKVYP" unit_of_measurement=nM endpoint_result=17
binder="ACTH1-24-natural N-terminal spacer-α-MSH (peptide) peptide: SYSMEHFRWGKPVGKKRRPVKVYPPLPEGGPEPRSDGAKPGPREGKRSYSMEHFRWGKPV" unit_of_measurement=nM endpoint_result=6.2

Then this binder:
INPUT: Data request, read-out MCR3 EC50 (nM); cAMP production, LANCE cAMP assay, CHO-MCR3 cells, cell pool B, for NDP-α-MSH-linker-Furin site-linker-ACTH1-24 (peptide) peptide: Ac-SYS[Nle]EH[dF]RWGKPVGGGGSRRKRGGGGSSYSMEHFRWGKPVGKKRRPVKVYP
OUTPUT: 4
